meta.source: patent US20180230200A1

molecular target: T1, gH/gL/UL128/UL130/UL131A pentamer complex expressed from MVA-PC in BHK-21 cells (human cytomegalovirus, UniProt P12824 24-743; P16832 31-278; P16837 28-171; P16772 1-214; F5HET4 19-129); test: FC competition, MVA-PC BHK-21; unlabelled row Ab; competitor: biotinylated 21F6
T1 construct: whole, on cells
QUANTITY: Binding Inhibition (%)

BINDER	VAL
12E2 (antibody, V domains shown, also called NAb 12E2) VH: EVKLVESGGGLVQPGGSLKLSCATSGFTFSDYYMFWVRQTPEKKLEWVAYISNGGGSTYYPDTVKGRFTISRDNDKNTLYLQMSRLKSDDTALYYCVRPKRDFQYLYAMDYWGQGTSVTVSS VL: DIVLTQSPASLAVSLGQRATISCRASKSVSTSGYSYMHWYQQKPGQSPKLLIYLASNLESGVPARFSGSGSGTDFTLNIHPVEDEDAATYYCQHSRELPWTFGGGTKLEIK	0
1B2 (antibody, V domains shown, also called NAb 1B2) VH: EVQLVESGGVLVKPGGSLKLSCAASGFTFSDYYMYWVRQTPEKRLEWVATISDDGNYTNYPDSVKGRFTISRDNAKNNLYLQMSSLKSEDTAMYYCARGWLLPVFAYWGQGTLVTVSA VL: DIVLTQSPATLSVTPGDSVSLSCRASQSIGNNLHWYQQKSHESPRLLIKYTSQSISGIPSRFSGSGSGTDFTLNINSVETEDFGVYFCQQSNRWPWTFGGGTKLEIK	0
21F6 (antibody, V domains shown, also called NAb 21F6) VH: QIQLVQSGPELKKPGETVKISCKASGYTFTSYGMNWVKQAPGKGLKWMGWINTYTGEPTYADDFKGRFAFSLETSASTAYLQINNLKNEDTATYFCAREHYYGINPLLGCWGQGTTLTVSS VL: DIQMTQTTSSLSASLGDRVTISCSASQGISNYLNWYQQKPDGTVKLLIYDTSSLHSGVPSRFSGSGSGTDYSLTISNLEPEDIATYYCQQYSKLPYTFGGGTKLEIK	100
54E11 (antibody, V domains shown, also called NAb 54E11) VH: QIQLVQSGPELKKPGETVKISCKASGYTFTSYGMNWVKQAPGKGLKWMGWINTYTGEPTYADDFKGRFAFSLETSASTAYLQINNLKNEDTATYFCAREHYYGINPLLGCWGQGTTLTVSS VL: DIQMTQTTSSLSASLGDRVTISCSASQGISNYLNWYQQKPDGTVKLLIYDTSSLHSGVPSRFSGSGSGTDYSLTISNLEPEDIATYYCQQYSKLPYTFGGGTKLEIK	100
13B5 (antibody, V domains shown, also called NAb 13B5; 1365) VH: QVTLKESGPGILKPSQTLSLTCSFSGFSLTTSGLGVGWIRQPSGKGLEWLAHIWWDDDKYFNPSLRNQLTISKDTSRNQVFLEITSVTTADTATYYCVRSLYDYDEGYYFDSWGQGTTLTVSS VL: EIVMIQSPATLSVNPGDRVSLSCRASQSISDYLHWYQQKSHESPRLLIKYASQSISGIPSRFSGSGSGSDFTLSINSVEPEDVGVYYCQNGHTFPPTFGGGTKLEIK	0
18F10 (antibody, V domains shown, also called NAb 18F10) VH: QVTLKESGPGILQPSQTLSLTCSFSGFSLSTYGIGIGWIRQPSGKGLEWLAHIWWNDNKNYNTALKSRLTISKDPSNNQVFLKIASVDTADTATYFCARTGYFDVWGAGTTVTVSS VL: DVVLTQTPLSLPVSLGDQVSISCSSSQSLVHSNGNTYIHWYLQKPGQSPKLLIYTVSNRFSGVPDRFSGSGSGTDFTLKISRVEAEDLGLYFCSQSTHVPYTFGGGTKLEIK	0
